# Tested on: CPG-ds27 (DNA, hairpin) CGCGAATTCGCGTTTCGCGAATTCGCG
# protocolSummary: G4-CPG affinity chromatography
# assaySetup: 50 mM KCl; 10% DMSO, 10% ethanol; 60 μM compound; error ±2%
observedProperty: Bound Ligand (%)

// worked examples, Bound Ligand (%) included
molecule: C=Cc1c(C)c(O[C@@H]2O[C@H](CO)[C@@H](O)[C@H](O)[C@H]2O)cc2c1-c1ccc(O)c(C)c1CC2
uom: %
Bound Ligand (%): 0

molecule: C=CC12C3=C(CCc4c3ccc(O)c4C)C(CC1c1cc(C)cc3c1-c1ccc(O)c(C)c1CC3)C(C)(O)C2O (stereo not shown)
uom: %
Bound Ligand (%): 0

molecule: C=CC12C(=O)C(C)(O)C(CC1c1cc(C)cc3c1-c1ccc(O)c(C)c1CC3)C1=C2c2ccc(OC)c(C)c2CC1 (stereo not shown)
uom: %
Bound Ligand (%): 0

molecule: C=Cc1c(C)c(O[C@H]2O[C@H](CO)[C@@H](O)[C@H](O)[C@H]2O)cc2c1-c1ccc(O)c(C)c1CC2
uom: %
Bound Ligand (%): 0

a = C=Cc1c(C)c(O)cc2c1-c1ccc(O)c(C)c1CC2
b = Cc1c(O)cc2c3c1CCc1cc(O[C@H]4O[C@H](CO)[C@@H](O)[C@H](O)[C@H]4O)c(C)c(c1-3)CC2
c = C=CC12C(=O)C(C)(O)C3CC1c1c4c(cc(C)c1C31CCc3c(ccc(O)c3C)C21O)CCc1c-4ccc(O)c1C (stereo not shown)
Q) Put the entries in order of Bound Ligand (%), starting with the largest number. Please, when replying, give the labels in the order that was requested.
A) c, b, a
